Target: T1, Soluble IGF-1R (R&D Systems, Cat. # 391-GR/CF); recombinant human IGF-1R (human, UniProt P08069 31-935)
T1 construct: extracellular domain; Eu3+-labelled in the TR-FRET assays; also called sIGF-1R; rhIGF-1R
Assay: phage ELISA, vs IR
parameter: IGF-1R/IR Comparison

> print(dat)
                                     binder  measurement
1  PPLASDLDVQFYGWFVQQVSPPGRGG [H2CA-2-B3-IGFR]    3.6 ratio
2  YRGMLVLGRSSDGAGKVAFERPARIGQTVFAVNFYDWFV [A6L-0-E6-IR]     17 ratio
3   IWATGDFYRLLSQLVMGRVGT [20E2B-2-88-IGFR]    7.2 ratio
4  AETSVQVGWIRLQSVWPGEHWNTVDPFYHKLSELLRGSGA [B6L-4-D7-IR]    3.4 ratio
